target.system: Glutamate receptor ionotropic, AMPA (Rattus norvegicus, UniProt P19490+P19491+P19492+P19493)
outcome.measure: EC50 (µM)

Study these solved cases before continuing.
NC(Cc1c(O)noc1-c1nccs1)C(=O)O (stereo not drawn)
2.3
N[C@@H](Cc1c(O)noc1-c1ccco1)C(=O)O
0.71

a: NC(Cc1c(O)noc1-c1ccccn1)C(=O)O (stereo not drawn)
b: NC(Cc1c(O)noc1-c1ccc(Br)o1)C(=O)O (stereo not drawn)
c: N[C@@H](Cc1c(O)noc1-c1ccccn1)C(=O)O
d: NC(Cc1c(O)noc1-c1ccco1)C(=O)O (stereo not drawn)
e: NC(Cc1c(O)noc1-c1ccncc1)C(=O)O (stereo not drawn)
INPUT: Please list these compounds in decreasing order of EC50. Order the labels as requested and give them as your answer.
OUTPUT: b, e, a, c, d

* * *

target.system: Glutamate receptor ionotropic, AMPA (Rattus norvegicus, UniProt P19490+P19491+P19492+P19493)
outcome.measure: IC50 (µM)

These recorded examples may help you get a feel for the data.
N[C@H](Cc1c(O)noc1-c1ccco1)C(=O)O
100
NC(Cc1c(O)noc1-c1ccncc1)C(=O)O (stereo not drawn)
5.5
N[C@@H](Cc1c(O)noc1-c1ccco1)C(=O)O
0.11
N[C@@H](Cc1c(O)noc1-c1ccccn1)C(=O)O
0.19

a: NC(Cc1c(O)noc1-c1ccccn1)C(=O)O (stereo not drawn)
b: N[C@@H](Cc1c(-c2ccccc2)o[nH]c1=O)C(=O)O
INPUT: Endpoint returns the identifier whose IC50 is numerically larger, either a or b . Let me know the label of the one you choose.
OUTPUT: b

* * *

Quick reference: pIC50 of the listed items.
target.system: Glutamate receptor ionotropic, kainate
protocol: Ability to inhibit the binding of [3H]-kainic acid radioligand to Ionotropic glutamate receptor kainate in rat brain membranes.
Format: cell membranes
pIC50: −log10 of the molar value.

NC(Cc1c(O)noc1-c1ccc2ccccc2n1)C(=O)O (stereo not given)
< 4.00
NC(Cc1c(O)noc1-c1ccncc1)C(=O)O (stereo not given)
< 4.00
N[C@H](Cc1c(O)noc1-c1ccco1)C(=O)O
< 4.00

Documented pIC50 of NC(Cc1c(O)noc1-c1cccnc1)C(=O)O (stereo not given) : < 4.00

compound NC(Cc1c(O)noc1-c1nccs1)C(=O)O (stereo not given) , pIC50 observed: 5.31

* * *

# EC50 per record follows
target.system: Glutamate receptor ionotropic, AMPA (Rattus norvegicus, UniProt P19490+P19491+P19492+P19493)

Reference set (4 entries):
NC(Cc1c(O)noc1-c1ccc2ccccc2n1)C(=O)O (stereo unspecified)
> 1 mM
Cc1cccc(-c2onc(O)c2CC(N)C(=O)O)n1 (stereo unspecified)
> 1 mM
N[C@H](Cc1c(O)noc1-c1ccccn1)C(=O)O
> 0.1 mM
N[C@H](Cc1c(O)noc1-c1ccccc1)C(=O)O
> 0.1 mM

// EC50 lookup, compound = `N[C@H](Cc1c(O)noc1-c1ccco1)C(=O)O` , result: > 1 mM

Consider NC(Cc1c(O)noc1-c1cccnc1)C(=O)O (stereo unspecified) . Its measured EC50 is > 1 mM

* * *

target.system: Glutamate receptor ionotropic, AMPA (Rattus norvegicus, UniProt P19490+P19491+P19492+P19493)
pIC50: −log10 of the molar value.
outcome.measure: pIC50

NC(Cc1c(O)noc1-c1nccs1)C(=O)O (configuration not stated)
7.03

a: NC(Cc1c(O)noc1-c1ccco1)C(=O)O (configuration not stated)
b: NC(Cc1c(O)noc1-c1ccc(Br)o1)C(=O)O (configuration not stated)
INPUT: Given the two records a and b , choose the one whose pIC50 value is lower. When you have decided, please share the label of that item.
OUTPUT: b
(b: 4.92, a: 6.82)

Just for reference, ChEMBL document CHEMBL1131012 is where these values come from.
